# assay_system: c-kit (Homo sapiens)
# Construct: human Mo7e cells which endogenously express c-kit; endogenous in cells; host or cells: human Mo7e cells (promegakaryocytic leukemia line), stimulated with human recombinant SCF
# Sequence (P10721 26-976): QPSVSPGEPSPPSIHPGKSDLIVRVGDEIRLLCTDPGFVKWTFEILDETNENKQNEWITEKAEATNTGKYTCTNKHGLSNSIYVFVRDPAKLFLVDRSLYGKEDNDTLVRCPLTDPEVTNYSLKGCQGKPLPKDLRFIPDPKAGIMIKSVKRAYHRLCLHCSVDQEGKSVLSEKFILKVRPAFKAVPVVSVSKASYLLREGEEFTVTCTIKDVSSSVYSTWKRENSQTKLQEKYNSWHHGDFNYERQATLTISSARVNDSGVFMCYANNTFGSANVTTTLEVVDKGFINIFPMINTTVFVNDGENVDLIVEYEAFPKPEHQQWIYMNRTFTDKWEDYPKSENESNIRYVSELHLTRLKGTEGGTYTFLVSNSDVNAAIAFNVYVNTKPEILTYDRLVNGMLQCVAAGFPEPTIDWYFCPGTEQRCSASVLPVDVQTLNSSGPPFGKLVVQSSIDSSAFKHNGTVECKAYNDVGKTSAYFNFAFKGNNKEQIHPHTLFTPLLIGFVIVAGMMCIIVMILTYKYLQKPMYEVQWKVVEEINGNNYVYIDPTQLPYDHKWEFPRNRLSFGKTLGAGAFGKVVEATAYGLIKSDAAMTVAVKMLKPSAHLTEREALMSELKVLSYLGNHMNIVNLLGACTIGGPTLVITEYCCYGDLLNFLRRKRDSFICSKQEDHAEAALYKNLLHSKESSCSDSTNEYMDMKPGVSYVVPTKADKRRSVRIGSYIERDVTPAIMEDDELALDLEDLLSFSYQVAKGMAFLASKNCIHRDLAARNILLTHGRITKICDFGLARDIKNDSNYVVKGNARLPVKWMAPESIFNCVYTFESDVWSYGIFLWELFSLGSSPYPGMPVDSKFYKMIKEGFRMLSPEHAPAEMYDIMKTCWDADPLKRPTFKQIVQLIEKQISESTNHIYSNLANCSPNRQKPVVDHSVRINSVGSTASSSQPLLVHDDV
# method_summary: Mo7e cell proliferation assay (SCF dependent proliferation)
# Type: cell-based
# study_conditions: Table 2; values marked *: 20% FBS instead of 1% FBS; read-out: c-kit (Mo7e)
observable: IC50 (nM)

Some solved entries appear below for comparison.
INSERT INTO measurements (compound, measurement_units, numeric_value) VALUES
  ('Cc1ccc(-c2noc([C@H]3CCCO3)n2)cc1NC(=O)c1cnc2ccccn12', 'nM', 229),
  ('Cc1ccc(-c2noc([C@@H]3CCCO3)n2)cc1NC(=O)c1cnc2ccccn12', 'nM', 224),
  ('Cc1ccc(-c2noc(C3CCCN(C(=O)OC(C)(C)C)C3)n2)cc1NC(=O)c1cnc2ccccn12 (centres unmarked)', 'nM', 1600);

(I) Cc1ccc(-c2noc(C3CCCCN3C(=O)OC(C)(C)C)n2)cc1NC(=O)c1cnc2ccccn12 (centres unmarked)
(II) Cc1ccc(-c2noc(C3CCCCN3S(C)(=O)=O)n2)cc1NC(=O)c1cnc2ccccn12 (centres unmarked)
Prompt line: Recorded IC50 values differ for I and II ; which one is higher? Selection: enter the item's label.
Response line: I
(I: 1780 nM, II: 227 nM)
